Please provide measured self-cleavage for the entries that follow.
B1: CPEB3 Ribozyme (parent)
chain: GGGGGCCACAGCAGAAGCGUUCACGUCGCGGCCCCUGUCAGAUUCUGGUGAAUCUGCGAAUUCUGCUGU

Variants of: B1
Assay: self-cleavage, relative activity (ratio to wild type); higher = more cleavage; co-transcriptional
Answers are plain numbers.

[
  {
    "mutation_key": "G2A U38G",
    "self-cleavage": 0.0237
  }
]

Provide the reported self-cleavage of each entry below, same order.
1. G25A G50C
2. G1A G37A
3. C12G
4. U20G C27G

-- reply
1. 0.28
2. 0.0641
3. 0.92
4. 0.177

Provide the reported self-cleavage of each entry below, same order.
1. U20C C32G
2. A15U C27U
3. U36G U62A
4. G56C A59C
5. C9U G41C
6. G5C U53G
7. G2A G4U

-- reply
1: 0.218; 2: 0.153; 3: 0.131; 4: 0.403; 5: 0.949; 6: 0.212; 7: 0.0384

Provide the reported self-cleavage of each entry below, same order.
1. C6A C9U
2. C35U G37U
3. A60G U61C

-- reply
0.94
0.258
0.365

Lab note: measured self-cleavage of G17A G28C was 0.0891
